Reported pEC50 is given for each of the following compounds.
# SUBJECT_OF_TEST: Thyroid hormone receptor (Homo sapiens, UniProt P10827+P10828)
# Sequence (P10827 whole entry): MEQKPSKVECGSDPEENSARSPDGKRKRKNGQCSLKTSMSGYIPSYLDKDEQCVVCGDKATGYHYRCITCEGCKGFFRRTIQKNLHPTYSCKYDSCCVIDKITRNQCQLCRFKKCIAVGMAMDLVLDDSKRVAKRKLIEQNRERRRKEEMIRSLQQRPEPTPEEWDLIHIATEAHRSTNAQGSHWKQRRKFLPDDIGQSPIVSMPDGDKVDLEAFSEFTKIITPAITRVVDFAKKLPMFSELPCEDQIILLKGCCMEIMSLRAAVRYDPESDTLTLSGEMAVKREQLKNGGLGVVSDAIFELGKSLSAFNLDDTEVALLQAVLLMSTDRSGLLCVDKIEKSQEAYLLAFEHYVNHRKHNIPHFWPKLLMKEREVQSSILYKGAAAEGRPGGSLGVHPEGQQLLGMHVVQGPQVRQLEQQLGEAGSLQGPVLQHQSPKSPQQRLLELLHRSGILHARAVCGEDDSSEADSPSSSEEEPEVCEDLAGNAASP
# Sequence (P10828 whole entry): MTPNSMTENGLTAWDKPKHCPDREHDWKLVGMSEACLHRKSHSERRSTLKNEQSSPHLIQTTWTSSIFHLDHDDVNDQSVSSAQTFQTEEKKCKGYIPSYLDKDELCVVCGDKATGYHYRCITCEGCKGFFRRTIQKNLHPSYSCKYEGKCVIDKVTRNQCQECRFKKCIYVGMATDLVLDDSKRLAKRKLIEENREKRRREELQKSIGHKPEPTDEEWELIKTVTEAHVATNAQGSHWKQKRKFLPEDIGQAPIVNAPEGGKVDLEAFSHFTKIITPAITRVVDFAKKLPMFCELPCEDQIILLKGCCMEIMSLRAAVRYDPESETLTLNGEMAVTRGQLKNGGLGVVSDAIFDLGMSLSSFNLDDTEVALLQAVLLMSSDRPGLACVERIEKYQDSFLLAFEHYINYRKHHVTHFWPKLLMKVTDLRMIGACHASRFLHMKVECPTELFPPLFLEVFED
# MEASUREMENT_PROTOCOL: Agonist activity towards thyroid hormone receptor expressed in human HepG2 cells
pEC50: −log10 of the molar value.
MEASURED_ENDPOINT: pEC50

MOLECULE_SMILES: CCOC(=O)C(=O)Nc1cc(C)c(Oc2ccc3[nH]ccc3c2)c(C)c1
SUBJECT_OF_TEST: Thyroid hormone receptor (Homo sapiens, UniProt P10827+P10828)
OBSERVED_MEASUREMENT: 7.14
//
MOLECULE_SMILES: CC(C)c1c[nH]c2ccc(Oc3c(C(F)(F)F)cc(CCC(=O)O)cc3C(F)(F)F)cc12
SUBJECT_OF_TEST: Thyroid hormone receptor (Homo sapiens, UniProt P10827+P10828)
OBSERVED_MEASUREMENT: 8.59
//
MOLECULE_SMILES: CC(C)c1c[nH]c2ccc(Oc3c(C(F)(F)F)cc(CC(=O)O)cc3C(F)(F)F)cc12
SUBJECT_OF_TEST: Thyroid hormone receptor (Homo sapiens, UniProt P10827+P10828)
OBSERVED_MEASUREMENT: 9.30
//
MOLECULE_SMILES: CCOC(=O)C(=O)Nc1cc(C(F)(F)F)c(Oc2ccc3[nH]cc(Cc4ccc(F)cc4)c3c2)c(C(F)(F)F)c1
SUBJECT_OF_TEST: Thyroid hormone receptor (Homo sapiens, UniProt P10827+P10828)
OBSERVED_MEASUREMENT: 7.96
//
MOLECULE_SMILES: CCOC(=O)C(=O)Nc1cc(C)c(Oc2ccc3[nH]cc(C)c3c2)c(C)c1
SUBJECT_OF_TEST: Thyroid hormone receptor (Homo sapiens, UniProt P10827+P10828)
OBSERVED_MEASUREMENT: 7.82
